Each entry below lists one item and its recorded binding ratio vs parent P54AR4-83v2 value.
Target: EGFR (form in the assay not stated) (human, UniProt P00533 25-645, limits assumed)
Assay: ELISA, NEM conjugate 10 nM

1) P54AR4-83v2 Y28C, NEM conjugate (designed binder, NEM on Cys 28, His-tagged) LPAPKNLVVSEVTEDSARLSWDDPWAFCESFLIQYQESEKVGEAIVLTVPGSERSYDLTGLKPGTEYTVSIYGVHNVYKDTNMRGLPLSAIFTT
0 ratio
2) P54AR4-83v2 W25C, NEM conjugate (designed binder, NEM on Cys 25, His-tagged) LPAPKNLVVSEVTEDSARLSWDDPCAFYESFLIQYQESEKVGEAIVLTVPGSERSYDLTGLKPGTEYTVSIYGVHNVYKDTNMRGLPLSAIFTT
0.38 ratio
3) P54AR4-83v2 T93C, NEM conjugate (designed binder, NEM on Cys 93, His-tagged) LPAPKNLVVSEVTEDSARLSWDDPWAFYESFLIQYQESEKVGEAIVLTVPGSERSYDLTGLKPGTEYTVSIYGVHNVYKDTNMRGLPLSAIFCT
0.96 ratio
4) P54AR4-83v2 K62C, NEM conjugate (designed binder, NEM on Cys 62, His-tagged) LPAPKNLVVSEVTEDSARLSWDDPWAFYESFLIQYQESEKVGEAIVLTVPGSERSYDLTGLCPGTEYTVSIYGVHNVYKDTNMRGLPLSAIFTT
0.64 ratio

Okay, now this binder:
Query: // lookup binding ratio vs parent P54AR4-83v2 for P54AR4-83v2 N6C, NEM conjugate (designed binder, NEM on Cys 6, His-tagged) LPAPKCLVVSEVTEDSARLSWDDPWAFYESFLIQYQESEKVGEAIVLTVPGSERSYDLTGLKPGTEYTVSIYGVHNVYKDTNMRGLPLSAIFTT
Response: 0.76 ratio
